experiment: Toxicity against rat L6 cells after 72 hrs by Alamar blue assay; assay type: cell-based
ATTRIBUTE MEASURED: IC50 at 72 h (nM)
All answers are understood in nM, so give the number only.

[
  {
    "COMPOUND": "Cn1c2nc3ccccc3c-2c(NCCCN)c2ccccc21",
    "IC50 at 72 h, nM": 279
  },
  {
    "COMPOUND": "Cn1c2nc3ccccc3c-2c(NCCCN)c2cc(F)ccc21",
    "IC50 at 72 h, nM": 338
  },
  {
    "COMPOUND": "Cn1c2nc3ccccc3c-2c(NCCCNC(=O)Nc2ccccc2)c2cc(F)ccc21",
    "IC50 at 72 h, nM": 3560
  },
  {
    "COMPOUND": "Cn1c2nc3ccccc3c-2c(NCCCNC(=S)Nc2ccccc2)c2ccccc21",
    "IC50 at 72 h, nM": 1230
  }
]

IN: Need IC50 at 72 h of "CCCCNC(=O)NCCCNc1c2c3ccccc3nc-2n(C)c2ccccc12" , thanks.
OUT: 1740

IN: Entry to check: "Cn1c2nc3ccccc3c-2c(NCCCNC(=O)c2cccs2)c2ccccc21"
OUT: 4460

IN: Entry to check: Cn1c2nc3ccccc3c-2c(NCCCN2C(=O)c3ccccc3SC2c2ccc(Cl)cc2)c2ccccc21 (stereo not given)
OUT: 1100

IN: Entry to check: "Cn1c2nc3ccccc3c-2c(NCCCCCCN)c2ccccc21"
OUT: 693

IN: Entry to check: "Cn1c2nc3ccccc3c-2c(NCCCCCCNC(=O)Nc2ccccc2)c2ccccc21"
OUT: 397

IN: Entry to check: "Cn1c2nc3ccccc3c-2c(NCCCN)c2cc([N+](=O)[O-])ccc21"
OUT: 209
